B1: OR4K15 (parent)
chain: GUUAACGGUCAUAGGCCAUGGAAACUAGGAGCACCAUUUCGCUGCCAGUGAAGAAAUGAACAAAGAAAAUCUGGGCCAGGCAGGCAUCAAAAGAAAUAGUCUUGCGCUCAACCAGAAAGUCUGUAAUCAUUUUAAGGGUA

# Variants of: B1
# Measurement notes: self-cleavage, relative activity (ratio to wild type); higher = more cleavage; in vitro, sequencing; the parent is a self-cleaving ribozyme
Each entry gets condition not met if its self-cleavage stays under 1, and condition met if its self-cleavage is 1 or above.

| Residues | Category label |
| --- | --- |
| GUUAACGGUCAUAGGCCAUGGAAACUAGGAGCACCAUUUCGCUGCCAGUGAAGAUAUGAACAAAGAAAAUCUGGGCCAGGCAGGCAUCAAAGGAAAUAGUCUUGCGCUCAACCAGAAAGUCUGUAAUCAUUUUAAGGGUA [A55U A92G] | condition met |
| GUUAACGGUCAUAGGCCAAGGAAACUAGGAGCACCAUUUCGCUGCCAGUGAAGAAAUGAACAAAGAAAAUCUGGGCCAGGCAGGCAUCAACAGAAAUAGUCUUGCGCUCAACCAGAAAGUCUGUAAUCAUUUUAAGGGUA [U19A A91C] | condition met |
| GUUAACGGUCAUAGGCCAUGGAAACUAGGAGCACCAUUUCGCUGUCAGUGAAGAAAUGAACAAAGAAAAUCUGGGCCAGGCAGGCAUCAAAAGAAAUAGUCUUGCGCUCAACCAGAAAGUCUGUAAUCAUUUUAAGGGUG [C45U A140G] | condition met |
| GUUAACGGUCAUAGGCCAUGGAAACUAGGAGCACCAUUUCGCUGCCAGUGAAGAAAUGAACAAAGAAAAUCUGGGCCAGGCAGGCAUCAAAAGAAAUAGUCUUGCGCUCACCCAGAAAGUCUGUAAUCAUUUUAUGGGUA [A111C A135U] | condition not met |
| GUUAACGGUCUUAGGCCAUGGAAACUAGGAGCACCAUUUCGCUGCCAGUGAAGAAAUGAACAAAGAAAAUCUGGGCCAGGCAGGCAUCAGAAGAAAUAGUCUUGCGCUCAACCAGAAAGUCUGUAAUCAUUUUAAGGGUA [A11U A90G] | condition not met |
| GUUAACGGUCAUAGGCCAUGGAAACUAGGAGCACCAUUUCGCUGCCAGUGAAGAAAUGAACAAAGAAAAUCUGGGCCAGGCAGGCCUCAAAAGAAAUAGUCUUGCGCUUAACCAGAAAGUCUGUAAUCAUUUUAAGGGUA [A86C C109U] | condition not met |
| GUUAACGGUCAUAGGCCAUGGAAACUAGGAGCACCAUUUCGCUGCCAGUGAAGAAAUGAACAAAGAAAAUCUGGGCCAGGCAGGCAUCUAAAGAAAUAGUCUUGCGCUCAACCAGAAAGUCUGUAAUCCUUUUAAGGGUA [A89U A129C] | condition not met |
| GUUAACGGUCAUAGGCCAUGGAAGCUAGGAGCACCAUUUCGCUGCCAGAGAAGAAAUGAACAAAGAAAAUCUGGGCCAGGCAGGCAUCAAAAGAAAUAGUCUUGCGCUCAACCAGAAAGUCUGUAAUCAUUUUAAGGGUA [A24G U49A] | condition met |

Does GUUAACGGUCAUAGGCCAUGGAAAUUAGGAGCACCAUUUCGCUGCCAGUGAAGAAAUGAACAAAGAAAAUCUGGGCCAGGCAGGCAUCAAAAGAAAUAGUCUUGCGCUCAACCGGAAAGUCUGUAAUCAUUUUAAGGGUA [C25U A114G] have a reported self-cleavage of at least 1? condition not met

GUUAACGGUCAUAGGCCAUGGAAACUAGGAGCACCAUUUCGCUGCCAGUGAAGAAAUGAACAAAGAAAAUCUGGGCCAGGCAGGCAUCAAAAGAGAUAGUCUAGCGCUCAACCAGAAAGUCUGUAAUCAUUUUAAGGGUA [A95G U103A] ? condition met

GUCAACGGUCAUAGGCCAUGGAGACUAGGAGCACCAUUUCGCUGCCAGUGAAGAAAUGAACAAAGAAAAUCUGGGCCAGGCAGGCAUCAAAAGAAAUAGUCUUGCGCUCAACCAGAAAGUCUGUAAUCAUUUUAAGGGUA [U3C A23G] ? condition met

GUUAGCGGUCAUAGGCCAUGGAAACUAGGAGCACCAUUUCGCUGCCAGUGAAGAAAUGAACAAAGAAAAUCUGGGCCAGGCAGGCAUCAAAAGAAGUAGUCUUGCGCUCAACCAGAAAGUCUGUAAUCAUUUUAAGGGUA [A5G A96G] ? condition met

GUUAACGGUCAUAGGCCAUGGAAACUAGGAGCACCAUUUCGCUGCCUGUGAAGAAAUGAACAAAGAAAAUCUGGGCCAGGCAGGCAUCAAAAGAAAUAGUCUUGCGCUCAACCAGAAAGACUGUAAUCAUUUUAAGGGUA [A47U U120A] ? condition met

GUUAACGGUCAUAGGCCAUGGAACCUAGGAGCACCAUUUCGCUGCCAGUGAAGAAAUGAACAAAGAAAAUCUGGGCCAGGCAGGCACCAAAAGAAAUAGUCUUGCGCUCAACCAGAAAGUCUGUAAUCAUUUUAAGGGUA [A24C U87C] ? condition met

GUUAACGGUCGUAGGCCAUGGAAACUAGGAGCACCAUUUCGCUGCCAGUGACGAAAUGAACAAAGAAAAUCUGGGCCAGGCAGGCAUCAAAAGAAAUAGUCUUGCGCUCAACCAGAAAGUCUGUAAUCAUUUUAAGGGUA [A11G A52C] ? condition not met
